assay: AUC (0 to infinity) in serum of neutropenic ICR/Swiss mouse candidiasis model at 5 mg/kg, ip by reverse-phase high-pressure liquid chromatography; type: ADME, organism-based; parameters: time infinity, dose 5 mg/kg, route intraperitoneal
Starred links: 1 amine or outer side, 2 acyl side, 3 side chain; linkers in the order of their positions; H or OH if unused. Positions of bridges follow the written chain, without caps; N, C: chain ends. Non-standard residues stand in square brackets, D forms with d. Residues, ends and D or L forms follow the SMILES beside them. *: point of attachment. pTerphenylCO(4''-OnC5H11) = CCCCCOc1ccc(-c2ccc(-c3ccc(C(=O)*)cc3)cc2)cc1; Orn(4R-OH,5R-OH) = O=C([C@H](C[C@@H](O)[C@@H](O)N[*:3])N[*:1])[*:2]; hTyr(3S-OH,4S-OH) = N[C@H](C(=O)O)[C@H](O)[C@@H](O)c1ccc(O)cc1; Pro(3S-OH,4S-Me) = C[C@H]1CN[C@H](C(=O)O)[C@H]1O; Hyp = O=C(O)[C@@H]1C[C@@H](O)CN1
recorded.endpoint: AUC(0-inf) (ng·h/mL)
Numbers only here, please. The scale is ng·h/mL.

# AUC(0-inf) of CCCCCOc1ccc(-c2ccc(-c3ccc(C(=O)N[C@H]4C[C@@H](O)[C@@H](O)NC(=O)[C@@H]5[C@@H](O)[C@@H](C)CN5C(=O)[C@H]([C@@H](C)O)NC(=O)[C@H]([C@H](O)[C@@H](O)c5ccc(O)cc5)NC(=O)[C@@H]5C[C@@H](O)CN5C(=O)[C@H]([C@@H](C)O)NC4=O)cc3)cc2)cc1 [ANIDULAFUNGIN] ({pTerphenylCO(4''-OnC5H11)}-[Orn(4R-OH,5R-OH)]T[Hyp][hTyr(3S-OH,4S-OH)]T[Pro(3S-OH,4S-Me)]; lactam 1-C) = 96000

* * *

system: Mus musculus; assay: Cmax in serum of neutropenic ICR/Swiss mouse candidiasis model at 20 mg/kg, ip up to 4 hrs by reverse-phase high-pressure liquid chromatography; assay type: ADME, organism-based; design: dose 20 mg/kg, route intraperitoneal; conditions: in vivo
Starred links: 1 amine or outer side, 2 acyl side, 3 side chain; linkers in the order of their positions; H or OH if unused. Positions of bridges follow the written chain, without caps; N, C: chain ends. Non-standard residues stand in square brackets, D forms with d. Residues, ends and D or L forms follow the SMILES beside them. *: point of attachment. pTerphenylCO(4''-OnC5H11) = CCCCCOc1ccc(-c2ccc(-c3ccc(C(=O)*)cc3)cc2)cc1; Orn(4R-OH,5R-OH) = O=C([C@H](C[C@@H](O)[C@@H](O)N[*:3])N[*:1])[*:2]; hTyr(3S-OH,4S-OH) = N[C@H](C(=O)O)[C@H](O)[C@@H](O)c1ccc(O)cc1; Pro(3S-OH,4S-Me) = C[C@H]1CN[C@H](C(=O)O)[C@H]1O; Hyp = O=C(O)[C@@H]1C[C@@H](O)CN1
recorded.endpoint: Cmax (µg/mL)
Numbers only here, please. The scale is µg/mL.

# Cmax of CCCCCOc1ccc(-c2ccc(-c3ccc(C(=O)N[C@H]4C[C@@H](O)[C@@H](O)NC(=O)[C@@H]5[C@@H](O)[C@@H](C)CN5C(=O)[C@H]([C@@H](C)O)NC(=O)[C@H]([C@H](O)[C@@H](O)c5ccc(O)cc5)NC(=O)[C@@H]5C[C@@H](O)CN5C(=O)[C@H]([C@@H](C)O)NC4=O)cc3)cc2)cc1 [ANIDULAFUNGIN] ({pTerphenylCO(4''-OnC5H11)}-[Orn(4R-OH,5R-OH)]T[Hyp][hTyr(3S-OH,4S-OH)]T[Pro(3S-OH,4S-Me)]; lactam 1-C) = 24

* * *

system: Mus musculus; assay: Cmax in serum of neutropenic ICR/Swiss mouse candidiasis model at 5 mg/kg, ip up to 4 hrs by reverse-phase high-pressure liquid chromatography; assay type: ADME, organism-based; design: dose 5 mg/kg, route intraperitoneal; settings: in vivo
Starred links: 1 amine or outer side, 2 acyl side, 3 side chain; linkers in the order of their positions; H or OH if unused. Positions of bridges follow the written chain, without caps; N, C: chain ends. Non-standard residues stand in square brackets, D forms with d. Residues, ends and D or L forms follow the SMILES beside them. *: point of attachment. pTerphenylCO(4''-OnC5H11) = CCCCCOc1ccc(-c2ccc(-c3ccc(C(=O)*)cc3)cc2)cc1; Orn(4R-OH,5R-OH) = O=C([C@H](C[C@@H](O)[C@@H](O)N[*:3])N[*:1])[*:2]; hTyr(3S-OH,4S-OH) = N[C@H](C(=O)O)[C@H](O)[C@@H](O)c1ccc(O)cc1; Pro(3S-OH,4S-Me) = C[C@H]1CN[C@H](C(=O)O)[C@H]1O; Hyp = O=C(O)[C@@H]1C[C@@H](O)CN1
recorded.endpoint: Cmax (ng/mL)
Numbers only here, please. The scale is ng/mL.

I looked up CCCCCOc1ccc(-c2ccc(-c3ccc(C(=O)N[C@H]4C[C@@H](O)[C@@H](O)NC(=O)[C@@H]5[C@@H](O)[C@@H](C)CN5C(=O)[C@H]([C@@H](C)O)NC(=O)[C@H]([C@H](O)[C@@H](O)c5ccc(O)cc5)NC(=O)[C@@H]5C[C@@H](O)CN5C(=O)[C@H]([C@@H](C)O)NC4=O)cc3)cc2)cc1 [ANIDULAFUNGIN] ({pTerphenylCO(4''-OnC5H11)}-[Orn(4R-OH,5R-OH)]T[Hyp][hTyr(3S-OH,4S-OH)]T[Pro(3S-OH,4S-Me)]; lactam 1-C) and its Cmax for Mus musculus was 4300

* * *

experiment: Protein binding in Candida albicans K-1 infected neutropenic ICR/Swiss mouse serum after 30 mins by arithmetic dilution method; format: ADME, organism-based; settings: read-out: PB (converted)
Starred links: 1 amine or outer side, 2 acyl side, 3 side chain; linkers in the order of their positions; H or OH if unused. Positions of bridges follow the written chain, without caps; N, C: chain ends. Non-standard residues stand in square brackets, D forms with d. Residues, ends and D or L forms follow the SMILES beside them. *: point of attachment. pTerphenylCO(4''-OnC5H11) = CCCCCOc1ccc(-c2ccc(-c3ccc(C(=O)*)cc3)cc2)cc1; Orn(4R-OH,5R-OH) = O=C([C@H](C[C@@H](O)[C@@H](O)N[*:3])N[*:1])[*:2]; hTyr(3S-OH,4S-OH) = N[C@H](C(=O)O)[C@H](O)[C@@H](O)c1ccc(O)cc1; Pro(3S-OH,4S-Me) = C[C@H]1CN[C@H](C(=O)O)[C@H]1O; Hyp = O=C(O)[C@@H]1C[C@@H](O)CN1
recorded.endpoint: fraction unbound at 0.5 h
Keep it simple and answer with nothing but the number.

# fraction unbound at 0.5 h of CCCCCOc1ccc(-c2ccc(-c3ccc(C(=O)N[C@H]4C[C@@H](O)[C@@H](O)NC(=O)[C@@H]5[C@@H](O)[C@@H](C)CN5C(=O)[C@H]([C@@H](C)O)NC(=O)[C@H]([C@H](O)[C@@H](O)c5ccc(O)cc5)NC(=O)[C@@H]5C[C@@H](O)CN5C(=O)[C@H]([C@@H](C)O)NC4=O)cc3)cc2)cc1 [ANIDULAFUNGIN] ({pTerphenylCO(4''-OnC5H11)}-[Orn(4R-OH,5R-OH)]T[Hyp][hTyr(3S-OH,4S-OH)]T[Pro(3S-OH,4S-Me)]; lactam 1-C) = 0.2

* * *

test: AUC (0 to infinity) in serum of neutropenic ICR/Swiss mouse candidiasis model at 80 mg/kg, ip by reverse-phase high-pressure liquid chromatography; type: ADME, organism-based; set-up: time infinity, dose 80 mg/kg, route intraperitoneal
Starred links: 1 amine or outer side, 2 acyl side, 3 side chain; linkers in the order of their positions; H or OH if unused. Positions of bridges follow the written chain, without caps; N, C: chain ends. Non-standard residues stand in square brackets, D forms with d. Residues, ends and D or L forms follow the SMILES beside them. *: point of attachment. pTerphenylCO(4''-OnC5H11) = CCCCCOc1ccc(-c2ccc(-c3ccc(C(=O)*)cc3)cc2)cc1; Orn(4R-OH,5R-OH) = O=C([C@H](C[C@@H](O)[C@@H](O)N[*:3])N[*:1])[*:2]; hTyr(3S-OH,4S-OH) = N[C@H](C(=O)O)[C@H](O)[C@@H](O)c1ccc(O)cc1; Pro(3S-OH,4S-Me) = C[C@H]1CN[C@H](C(=O)O)[C@H]1O; Hyp = O=C(O)[C@@H]1C[C@@H](O)CN1
recorded.endpoint: AUC(0-inf)
Show the value, then the unit it is measured in.

# AUC(0-inf) of CCCCCOc1ccc(-c2ccc(-c3ccc(C(=O)N[C@H]4C[C@@H](O)[C@@H](O)NC(=O)[C@@H]5[C@@H](O)[C@@H](C)CN5C(=O)[C@H]([C@@H](C)O)NC(=O)[C@H]([C@H](O)[C@@H](O)c5ccc(O)cc5)NC(=O)[C@@H]5C[C@@H](O)CN5C(=O)[C@H]([C@@H](C)O)NC4=O)cc3)cc2)cc1 [ANIDULAFUNGIN] ({pTerphenylCO(4''-OnC5H11)}-[Orn(4R-OH,5R-OH)]T[Hyp][hTyr(3S-OH,4S-OH)]T[Pro(3S-OH,4S-Me)]; lactam 1-C) = 1980 µg·h/mL

src = ChEMBL document CHEMBL1153564
